- system-tested: SARS-COV-2 3CLpro/Mpro protease (Severe acute respiratory syndrome coronavirus 2 (2019-nCoV) (SARS-CoV-2), UniProt P0DTD1)
- experimental-details: Inhibitory effect on SARS-COV-2 3CLpro/Mpro protease by fluorescence resonance energy transfer
- Format: biochemical
- protocol-conditions: activity intervals A-D, read-out: IC50 (nM), Inhibition on SARS-CoV-2 3CLpro/Mpro protease
readout: IC50

Guide cases for IC50, answers given:
* CNc1cncc(C(=O)N2CC(Nc3c(C(=O)N4CCN(C5CCCCC5)CC4)cc(Br)cc3[N+](=O)[O-])C(F)(F)C2)c1 (stereo not drawn) [Example 172] | 10 to 50 nM
* O=C(c1cc(Br)cc([N+](=O)[O-])c1N[C@@H]1CCCN(C(=O)c2cc(=O)[nH]c3ccccc23)C1)N1CCCCC1 [Example 116] | < 10 nM
* CNc1cncc(C(=O)N2CC(Nc3c(C(=O)N4CCCCC4)cc(Br)cc3[N+](=O)[O-])C(F)(F)C2)c1 (stereo not drawn) [Example 32] | 10 to 50 nM
* CNc1cncc(C(=O)N2CCC[C@@H](Nc3c(C(=O)N4CC=C(F)CC4)cc(Br)cc3[N+](=O)[O-])C2)c1 [Example 337] | 10 to 50 nM
* O=C(c1cc(Br)cc(C(F)(F)F)c1N[C@@H]1CCN(C(=O)c2cncc3ccccc23)C1)N1CCCCC1 [Example 48] | 10 to 50 nM

Now consider the entry below.
Prompt line: What IC50 value was documented for this compound, Cc1cc(C(=O)N2CCC[C@@H](Nc3c(C(=O)N4CCN(CC(F)(F)F)CC4)cc(Br)cc3[N+](=O)[O-])C2)cc(=O)[nH]1 [Example 146] ?
Response line: 10 to 50 nM

Numbers sourced from patent US20250042889A1.
